Source listed as paper PMC9352680.

Biological target: T1, PUF4 RNA-binding domain (Saccharomyces cerevisiae, UniProt P25339 537-888)
T1 sequence: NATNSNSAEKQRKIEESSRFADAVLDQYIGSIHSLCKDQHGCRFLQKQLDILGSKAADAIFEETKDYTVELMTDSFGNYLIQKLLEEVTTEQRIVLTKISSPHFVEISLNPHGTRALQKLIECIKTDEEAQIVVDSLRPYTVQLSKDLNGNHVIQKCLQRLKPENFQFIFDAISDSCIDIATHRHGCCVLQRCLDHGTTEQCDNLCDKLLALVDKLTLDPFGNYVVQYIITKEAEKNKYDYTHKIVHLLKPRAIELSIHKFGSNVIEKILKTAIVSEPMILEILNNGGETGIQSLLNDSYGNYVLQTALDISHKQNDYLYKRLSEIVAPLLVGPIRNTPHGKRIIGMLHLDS
Test: Mg; RNA-MaP; 20 mM Na-HEPES pH 7.4, 30 mM KOAc, 0.75 mM MgCl2, 0.1% Tween-20, 5% glycerol, 0.1 mg/mL BSA, 2 mM DTT; 25 C; 0.0125-409.6 nM protein
Settings: tags: N-His6-TEV cleaved; C-SNAP kept, Cy3B-labelled; label: tethered on chip by stalled RNA polymerase
For each record, write down the corresponding pKd.
Give bare numbers, as −log10 of the molar value.

In the examples that follow, each entry is paired with its recorded pKd.
{"BINDER": "Id_ii_S2_P5E.3_K5.2_C5.2_H5.2_A5.1_F5.1_T5.2_[T11C] (ssRNA) RNA: UUUGAUUAAUAUGAUAUCGUUCUUUCUCUUAUAUUAUUACAUUCUUUCUCGAUAUCAUAUUAAUCUUU", "READOUT_VALUE": 6.99}
{"BINDER": "Ic_S4_P5E.1_K5.1_C5.1_H5.1_A5.1_[T5A]_[T6A]_[A7C]_F5.1_[T8C]_[T9G]_[A10C]_T5.1 (ssRNA) RNA: UUUGACAACUGAUCGUUCUUUCUUGUAAACCGCUUCUUUCUCGAUCAGUUGUCUUU", "READOUT_VALUE": 6.15}

Go through the list and state pKd for each entry.
1. UCUCUUUGUAUACUCUUUAUCUCUU (ssRNA) [Ie_S1_P4E.1_K4.1_C4.1_H4.1_A4.1_[+6CTCT]_F4.1_T4.1]
2. UCUCUUUGUACCAGCUCUCUU (ssRNA) [Ic_S1_P4E.1_K4.1_C4.1_H4.1_A4.1_[T5C]_[A6C]_[T7A]_F4.1_[T8G]_[A9C]_T4.1]

Result string:
[7.90, 6.04]

Query string: Item UCUCUUUGUCUUAUUGUCUCUU (ssRNA) [Ib_S1_P5E.1_K5.1_C5.1_H5.1_[A4C]_A5.1_F5.1_[A10G]_T5.1] has what recorded pKd?
Result string: 6.08
